- Test system: Escherichia coli
- Assay overview: Antibacterial activity against Escherichia coli ATCC 25922 expressing qnrA gene and pBK-QnrA1 assessed as earliest time required to resistant colonies visible one step below mutant prevention concentration
- Format: functional
Property measured: Time (h)
Give bare numbers, in h.

Reference set (3 entries):
CCn1cc(C(=O)O)c(=O)c2cc(F)c(N3CCNCC3)cc21    24
C[C@H]1COc2c(N3CCN(C)CC3)c(F)cc3c(=O)c(C(=O)O)cn1c23.C[C@H]1COc2c(N3CCN(C)CC3)c(F)cc3c(=O)c(C(=O)O)cn1c23.O    24
O=C(O)c1cn(C2CC2)c2cc(N3CCNCC3)c(F)cc2c1=O    48

// switching to the query compound
input: Consider the compound COc1c(N2C[C@@H]3CCCN[C@@H]3C2)c(F)cc2c(=O)c(C(=O)O)cn(C3CC3)c12 and give its recorded Time.
output: 24

* * *

Kindly state Activity for each of the entries shown.
- Test system: Escherichia coli
- Assay overview: Antibacterial activity against Escherichia coli ATCC 25922 harboring GyrA S83L mutant assessed as mutant prevention concentration
- Format: functional
Answers are plain numbers, in µg/mL.

Reference set (3 entries):
C[C@H]1COc2c(N3CCN(C)CC3)c(F)cc3c(=O)c(C(=O)O)cn1c23.C[C@H]1COc2c(N3CCN(C)CC3)c(F)cc3c(=O)c(C(=O)O)cn1c23.O    4
COc1c(N2C[C@@H]3CCCN[C@@H]3C2)c(F)cc2c(=O)c(C(=O)O)cn(C3CC3)c12    4
O=C(O)c1cn(C2CC2)c2cc(N3CCNCC3)c(F)cc2c1=O    4

input: Fill in: Activity on Escherichia coli, entry CCn1cc(C(=O)O)c(=O)c2cc(F)c(N3CCNCC3)cc21
output: 8

* * *

- Tested on: Escherichia coli
- Assay overview: Antibacterial activity against qnrS gene expressing Escherichia coli ATCC 25922 harboring GyrA S83L mutant and pBK-QnrS1 assessed as mutant prevention concentration
- Type: functional
Kindly state Activity for each of the entries shown.
Answers are plain numbers, in µg/mL.

COc1c(N2C[C@@H]3CCCN[C@@H]3C2)c(F)cc2c(=O)c(C(=O)O)cn(C3CC3)c12    32

// for each compound in input: emit Activity
1. C[C@H]1COc2c(N3CCN(C)CC3)c(F)cc3c(=O)c(C(=O)O)cn1c23.C[C@H]1COc2c(N3CCN(C)CC3)c(F)cc3c(=O)c(C(=O)O)cn1c23.O
2. CCn1cc(C(=O)O)c(=O)c2cc(F)c(N3CCNCC3)cc21
3. O=C(O)c1cn(C2CC2)c2cc(N3CCNCC3)c(F)cc2c1=O

output:
1. 16
2. 32
3. 8

* * *

- Tested on: Escherichia coli
- Assay overview: Antibacterial activity against qnrB gene expressing Escherichia coli ATCC 25922 harboring GyrA S83L mutant and pBK-QnrB1 by broth microdilution method
- Format: functional
Kindly state MBC for each of the entries shown.
State the result as a value with its unit after it.

// for each compound in input: emit MBC
1. O=C(O)c1cn(C2CC2)c2cc(N3CCNCC3)c(F)cc2c1=O
2. COc1c(N2C[C@@H]3CCCN[C@@H]3C2)c(F)cc2c(=O)c(C(=O)O)cn(C3CC3)c12
3. CCn1cc(C(=O)O)c(=O)c2cc(F)c(N3CCNCC3)cc21
4. C[C@H]1COc2c(N3CCN(C)CC3)c(F)cc3c(=O)c(C(=O)O)cn1c23.C[C@H]1COc2c(N3CCN(C)CC3)c(F)cc3c(=O)c(C(=O)O)cn1c23.O

output:
0.5 µg/mL
0.5 µg/mL
1 µg/mL
0.5 µg/mL

* * *

Kindly state MBC for each of the entries shown.
- Tested on: Escherichia coli
- Assay overview: Antibacterial activity against Escherichia coli ATCC 25922 expressing qnrS gene and pBK-QnrS1 by broth microdilution method
- Type: functional
State the result as a value with its unit after it.

// for each molecule in input: emit MBC
1. COc1c(N2C[C@@H]3CCCN[C@@H]3C2)c(F)cc2c(=O)c(C(=O)O)cn(C3CC3)c12
2. O=C(O)c1cn(C2CC2)c2cc(N3CCNCC3)c(F)cc2c1=O
3. C[C@H]1COc2c(N3CCN(C)CC3)c(F)cc3c(=O)c(C(=O)O)cn1c23.C[C@H]1COc2c(N3CCN(C)CC3)c(F)cc3c(=O)c(C(=O)O)cn1c23.O
4. CCn1cc(C(=O)O)c(=O)c2cc(F)c(N3CCNCC3)cc21

output:
1. 0.25 µg/mL
2. 0.25 µg/mL
3. 0.5 µg/mL
4. 1 µg/mL

* * *

- Test system: Escherichia coli
- Assay overview: Antibacterial activity against qnrS gene expressing Escherichia coli ATCC 25922 harboring GyrA S83L mutant and pBK-QnrS1 assessed as earliest time required to resistant colonies visible one step below mutant prevention concentration
- Assay type: functional
Property measured: Time (h)
Answers are plain numbers, in h.

Reference set (3 entries):
C[C@H]1COc2c(N3CCN(C)CC3)c(F)cc3c(=O)c(C(=O)O)cn1c23.C[C@H]1COc2c(N3CCN(C)CC3)c(F)cc3c(=O)c(C(=O)O)cn1c23.O    96
CCn1cc(C(=O)O)c(=O)c2cc(F)c(N3CCNCC3)cc21    24
O=C(O)c1cn(C2CC2)c2cc(N3CCNCC3)c(F)cc2c1=O    24

// switching to the query compound
input: Consider the compound COc1c(N2C[C@@H]3CCCN[C@@H]3C2)c(F)cc2c(=O)c(C(=O)O)cn(C3CC3)c12 and give its recorded Time.
output: 24

* * *

Kindly state MBC for each of the entries shown.
- Test system: Escherichia coli
- Assay overview: Antibacterial activity against Escherichia coli ATCC 25922 harboring GyrA S83L mutant by broth microdilution method
- Assay type: functional
One number for each entry, in µg/mL.

O=C(O)c1cn(C2CC2)c2cc(N3CCNCC3)c(F)cc2c1=O [CIPROFLOXACIN]    0.125
CCn1cc(C(=O)O)c(=O)c2cc(F)c(N3CCNCC3)cc21 [NORFLOXACIN]    0.5

// for each compound in input: emit MBC
1. C[C@H]1COc2c(N3CCN(C)CC3)c(F)cc3c(=O)c(C(=O)O)cn1c23.C[C@H]1COc2c(N3CCN(C)CC3)c(F)cc3c(=O)c(C(=O)O)cn1c23.O [LEVOFLOXACIN]
2. COc1c(N2C[C@@H]3CCCN[C@@H]3C2)c(F)cc2c(=O)c(C(=O)O)cn(C3CC3)c12 [MOXIFLOXACIN]

output:
0.25
0.125
